Kindly supply the reported EC50, inhibition of proliferation of Cloudman melanoma cells (cell count) values for the records listed here.
SYSTEM_NAME: CRH1 receptor (mouse, UniProt P35347)
EXPERIMENT: cell-based or functional assay
Non-standard residues stand in square brackets, D forms with d. No end group written: not given here.
One number for each entry, in picomolar.

SEEPPISLDLTFHLLREVL[dE]MARAEQLAQQAHSNRKLMEII-NH2 [[D-Glu^20]-CRH] | 16

// input: 3 binders below; output: EC50, inhibition of proliferation of Cloudman melanoma cells (cell count) for each
1. SEEP[dP]ISLDLTFHLLREVLEMARAEQLAQQAHSNRKLMEII-NH2 [[D-Pro^5]-CRH]
2. SEEPPISLDLTFHLLREVLEMARAEQLAQQAHSNRKLMEII-NH2 (ligand) [Corticotropin-releasing hormone (CRH), human/rat]
3. DNPSLSIDLTFHLLRTLLELARTQSQRERAEQNRIIFDSV-NH2 (ligand) [Urocortin (human)]

1. 82
2. 8.6
3. 9.5
